# Test system: Macrophage cell line
# ASSAY METHOD TEXT: Induction of prostaglandin production in human PBMC-differentiated macrophages after 24 hrs by ELISA
# Assay type: cell-based
REPORTED PROPERTY: Activity

Some compounds with recorded Activity:
[
  {
    "COMPOUND": "COc1cccc(-c2cc(C(=O)[O-])c(O)c[n+]2C)c1",
    "Activity": "Non-Toxic"
  },
  {
    "COMPOUND": "Cc1cc(C(=O)O)c(O)c(Cc2ccccc2)n1",
    "Activity": "Non-Toxic"
  },
  {
    "COMPOUND": "O=C(O)c1cc(O)c(-c2ccccc2)nc1-c1ccccc1",
    "Activity": "Non-Toxic"
  },
  {
    "COMPOUND": "O=C(O)c1cc(-c2ccc(F)cc2F)ccc1O [DIFLUNISAL]",
    "Activity": "Non-Toxic"
  },
  {
    "COMPOUND": "C[n+]1ccc(C(=O)[O-])c(O)c1Cc1ccccc1",
    "Activity": "Non-Toxic"
  },
  {
    "COMPOUND": "C[n+]1cc(O)c(C(=O)[O-])cc1-c1ccccc1",
    "Activity": "Non-Toxic"
  },
  {
    "COMPOUND": "O=C(O)c1cnc(-c2ccccc2)c(O)c1",
    "Activity": "Non-Toxic"
  },
  {
    "COMPOUND": "O=C(O)c1ccnc(Cc2ccccc2)c1O",
    "Activity": "Non-Toxic"
  },
  {
    "COMPOUND": "O=C(O)c1cc(-c2ccccc2)ncc1O",
    "Activity": "Non-Toxic"
  },
  {
    "COMPOUND": "O=C(O)c1cc(-c2ccc(F)cc2F)ncc1O",
    "Activity": "Non-Toxic"
  }
]

For every item in the list below, what is its measured Activity?
1. O=C(O)c1ccnc(-c2ccccc2)c1O
2. COc1cccc(-c2cc(C(=O)O)c(O)cn2)c1
3. Cc1nc(-c2ccccc2)c(O)cc1C(=O)O

["Non-Toxic", "Non-Toxic", "Non-Toxic"]

Quick one: give me Activity for each item below, same order please.
1. O=C(O)c1cc(O)cnc1-c1ccccc1
2. O=C(O)c1cnc2c(F)cc(F)cc2c1O
3. O=C(O)c1cc(-c2ccccc2)nc(-c2ccccc2)c1O
4. Cc1nc(-c2ccccc2)cc(C(=O)O)c1O

1: Non-Toxic; 2: Non-Toxic; 3: Non-Toxic; 4: Non-Toxic
